# System: E.G7 (OVA) cells
# STUDY_CONDITIONS: E:T 50:1; s.c. 25 μg OVA in AGP preparation, spleen cells 21 days later
MEASURED_ATTRIBUTE: % Cytotoxicity

Consider the following illustrative entries.
-- ask Give E.G7 (OVA) cells % Cytotoxicity for "CCCCCCCCCCCCCC(=O)O[C@H](CCCCCCCCCCC)CC(=O)N[C@H]1[C@H](OC[C@H](NC(=O)C[C@@H](CCCCCCCCCCC)OC(=O)CCCCCCCCCCCCC)C(=O)OC)O[C@H](CO)[C@@H](OP(=O)(O)O)[C@@H]1OC(=O)C[C@@H](CCCCCCCCCCC)OC(=O)CCCCCCCCCCCCC.CCN(CC)CC"
-- reply 14%

-- ask Field entry: "CCCCCCCCCCCC(=O)O[C@H](CCCCCCCCCCC)CC(=O)N[C@H]1[C@H](OC[C@H](NC(=O)C[C@@H](CCCCCCCCCCC)OC(=O)CCCCCCCCCCC)C(=O)O)O[C@H](CO)[C@@H](OP(=O)(O)O)[C@@H]1OC(=O)C[C@@H](CCCCCCCCCCC)OC(=O)CCCCCCCCCCC.CCN(CC)CC"
-- reply 13%

-- ask Same again, this time with "CCCCCCCCCCC[C@H](CC(=O)N[C@H]1[C@H](OCCCN(CC(=O)O)C(=O)C[C@@H](CCCCCCCCCCC)OC(=O)CCCCCCCCC)O[C@H](CO)[C@@H](OP(=O)(O)O)[C@@H]1OC(=O)C[C@@H](CCCCCCCCCCC)OC(=O)CCCCCCCCC)OC(=O)CCCCCCCCC.CCN(CC)CC"
-- reply 28%

Kindly consider the entry below.
-- ask Request body: readout % Cytotoxicity, system E.G7 (OVA) cells, query "CCCCCCCCCCCCCC(=O)O[C@H](CCCCCCCCCCC)CC(=O)N[C@H]1[C@H](OCCN(CC(=O)O)C(=O)C[C@@H](CCCCCCCCCCC)OC(=O)CCCCCCCCCCCCC)O[C@H](CO)[C@@H](OP(=O)(O)O)[C@@H]1OC(=O)C[C@@H](CCCCCCCCCCC)OC(=O)CCCCCCCCCCCCC.CCN(CC)CC" . Return the value.
-- reply 17%
